meta.source: patent US9555038B2

Quick list: pIC50 per entry.
Tested on: HCV replicon 1AY93H
Test: Cell-based HCV Replicon Assay A, replicon 1AY93H
Settings: read-out: 1A Y93H IC50, replicon 1AY93H
pIC50: −log10 of the molar value.

{"columns": ["MOLECULE", "pIC50"],
 "data": [
  ["CCC(CC)c1ncc(C2Oc3cc(-c4cnc([C@@H]5CCCN5C(=O)[C@@H](NC(=O)OC)C(C)C)[nH]4)cc(F)c3-c3cc4cc(-c5cnc([C@@H]6CCCN6C(=O)C(NC(=O)OC)C6CCOC(C)(C)C6)[nH]5)ccc4n32)s1 (single isomer, unassigned) [Compound 445]", 9.97],
  ["COC(=O)NC(C(=O)N1[C@@H]2C[C@@H]2C[C@H]1c1ncc(-c2ccc3c(c2)cc2n3C(c3cnc(C4CCCC4)s3)Oc3cc(-c4cnc([C@@H]5CCCN5C(=O)[C@@H](NC(=O)OC)C(C)C)[nH]4)cc(F)c3-2)[nH]1)C(C)(C)F (single isomer, unassigned) [Compound 328]", 10.33],
  ["COC(=O)N[C@H](C(=O)N1CCC[C@H]1c1ncc(-c2cc(F)c3c(c2)OC(c2cnc(C4CCOCC4)s2)n2c-3cc3cc(-c4cnc([C@@H]5CCCN5C(=O)[C@@H](NC(=O)OC)C(C)C)[nH]4)ccc32)[nH]1)C(C)C (single isomer, unassigned) [Compound 532]", 8.75],
  ["CCc1ncc(C2Oc3cc(-c4cnc([C@@H]5CCCN5C(=O)[C@@H](NC(=O)OC)C(C)C)[nH]4)cc(F)c3-c3cc4cc(-c5cnc([C@@H]6C[C@H]7C[C@H]7N6C(=O)[C@@H](CC(=O)OC)C(C)C)[nH]5)ccc4n32)s1 (single isomer, unassigned) [Compound 84]", 10.15]
]}

* * *

Test system: HCV replicon 1AY93H
Assay: Cell-based HCV Replicon Assay A, replicon 1AY93H
Details: read-out: 1A Y93H IC50, replicon 1AY93H
pIC50: −log10 of the molar value.
METRIC_NAME: pIC50

{"columns": ["COMPOUND", "METRIC_NAME", "REPORTED_MEASUREMENT"],
 "data": [
  ["COC(=O)NC(C(=O)N1[C@@H]2C[C@@H]2C[C@H]1c1ncc(-c2ccc3c(c2)cc2n3C(c3ncc(C4CC4)s3)Oc3cc(-c4cnc([C@@H]5CCCN5C(=O)[C@@H](NC(=O)OC)C(C)C)[nH]4)cc(F)c3-2)[nH]1)C1C[C@@H](C)O[C@@H](C)C1 (single isomer, unassigned) [Compound 64]", "pIC50", 9.80],
  ["COC(=O)NC(C(=O)N1CCC[C@H]1c1ncc(-c2ccc3c(c2)cc2n3C(c3cnc(-c4ccc(F)cc4)s3)Oc3cc(-c4cnc([C@@H]5CCCN5C(=O)[C@@H](NC(=O)OC)C(C)C)[nH]4)cc(F)c3-2)[nH]1)C1C[C@@H](C)O[C@@H](C)C1 (single isomer, unassigned) [Compound 80]", "pIC50", 10.30],
  ["COC(=O)NC(C(=O)N1CCC[C@H]1c1ncc(-c2ccc3c(c2)cc2n3C(c3cnc(C4CCOCC4)s3)Oc3cc(-c4cnc([C@@H]5CCCN5C(=O)[C@@H](NC(=O)OC)C(C)C)[nH]4)cc(F)c3-2)[nH]1)C1CCOC(C)(C)C1 (single isomer, unassigned) [Compound 449]", "pIC50", 10.19],
  ["CCc1ncc(C2Oc3cc(-c4cnc([C@@H]5CCCN5C(=O)[C@@H](NC(=O)OC)C(C)C)[nH]4)cc(F)c3-c3cc4cc(-c5cnc([C@@H]6C[C@H]7C[C@H]7N6C(=O)C(NC(=O)OC)C6CCOC(C)(C)C6)[nH]5)ccc4n32)s1 (single isomer, unassigned) [Compound 92]", "pIC50", 11.35]
]}
